Tested on: OVCAR-4
Assay: NCI tumour cell line growth inhibition, 48 h
Active and inactive are the calls of the source. No stated cut-off is given here; in the data, active = GI50 up to about 1.1 µM and inactive = higher.
ENDPOINT: GI50

Report measured GI50; entry is "Cc1cc(C)nc(NS(=O)(=O)c2ccc(Nc3c4ccccc4nc4c(C(=O)N5CCN(CCOS(C)(=O)=O)CC5)cccc34)cc2)n1"
> 100 µM (inactive)

Report measured GI50; entry is "O=C(NCCCN(CCCCN(CCCNC(=O)C(F)(F)F)Cc1ccccc1)Cc1ccccc1)C(F)(F)F"
16.8 µM (inactive)

Report measured GI50; entry is "Cc1cc(S(=O)(=O)Nc2nc(Nc3ccccc3)n[nH]2)c(SSc2cc(Cl)c(C)cc2S(=O)(=O)Nc2nc(Nc3ccccc3)n[nH]2)cc1Cl"
> 100 µM (inactive)

Report measured GI50; entry is "O=[N+]([O-])c1cc(Cl)cnc1Br"
2.28 µM (inactive)

Report measured GI50; entry is "CN(C)c1ccc2c(c1)C(=O)N(OS(=O)(=O)c1ccc([N+](=O)[O-])cc1)C2=O"
15.7 µM (inactive)

Report measured GI50; entry is "COc1ccc2[nH]c3cc4c(=O)c5cc(OC)ccc5[nH]c4cc3c(=O)c2c1"
> 100 µM (inactive)
